Entries annotated with measured Potency (cAMP, transient hRXFP1 in HEK293)
Target entity: T1, human RXFP1 (human, UniProt Q9HBX9 1-757)
T1 sequence (looked up): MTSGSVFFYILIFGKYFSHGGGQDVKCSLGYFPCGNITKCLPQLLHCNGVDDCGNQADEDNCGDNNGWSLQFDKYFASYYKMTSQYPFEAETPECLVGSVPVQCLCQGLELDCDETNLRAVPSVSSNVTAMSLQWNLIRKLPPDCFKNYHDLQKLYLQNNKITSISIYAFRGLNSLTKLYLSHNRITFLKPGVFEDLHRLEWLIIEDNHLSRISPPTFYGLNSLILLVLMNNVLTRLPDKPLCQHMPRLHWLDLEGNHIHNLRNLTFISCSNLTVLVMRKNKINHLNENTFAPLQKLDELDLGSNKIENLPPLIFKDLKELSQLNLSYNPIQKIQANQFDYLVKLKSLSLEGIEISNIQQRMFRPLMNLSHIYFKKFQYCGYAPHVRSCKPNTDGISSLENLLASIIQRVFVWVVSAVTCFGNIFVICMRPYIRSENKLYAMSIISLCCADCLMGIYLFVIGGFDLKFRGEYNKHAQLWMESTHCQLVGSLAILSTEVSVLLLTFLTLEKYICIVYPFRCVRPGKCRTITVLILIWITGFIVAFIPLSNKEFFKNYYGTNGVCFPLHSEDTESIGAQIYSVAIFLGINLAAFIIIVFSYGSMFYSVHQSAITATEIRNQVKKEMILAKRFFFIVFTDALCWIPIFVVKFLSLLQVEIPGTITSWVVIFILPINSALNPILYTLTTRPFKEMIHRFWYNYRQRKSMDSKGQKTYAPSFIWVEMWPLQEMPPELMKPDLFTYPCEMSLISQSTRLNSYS
Test protocol: cell-based or functional assay
Write the value in nM as a bare number.

| Binder | Value unit | Experimental value |
| --- | --- | --- |
| SEQ ID NO: 365 (Fc fusion) DKTHTCPPCPAPEAAGGPSVFLFPPKPKDTLMISRTPEVTCVVVDVSHEDPEVKFNWYVDGVEVHNAKTKPREEQYNSTYRVVSVLTVLHQDWLNGKEYKCKVSNKALAAPIEKTISKAKGQPREPQVYTLPPSRDELTKNQVSLTCLVKGFYPSDIAVEWESNGQPENNYKTTPPVLDSDGSFFLYSKLTVDKSRWQQGNVFSCSVLHEALHSHYTQKSLSLSPGKGGSDSWMEEVIKLCGRELVRAQIAICGKSTGGEGGGEEGGGEGGQLYSALANKCCHVGCTKRSLARFC | nM | 60.3 |

# next binder below
I would be grateful if you could share the reported Potency (cAMP, transient hRXFP1 in HEK293) for SEQ ID NO: 362 (Fc fusion) DKTHTCPPCPAPEAAGGPSVFLFPPKPKDTLMISRTPEVTCVVVDVSHEDPEVKFNWYVDGVEVHNAKTKPREEQYNSTYRVVSVLTVLHQDWLNGKEYKCKVSNKALAAPIEKTISKAKGQPREPQVYTLPPSRDELTKNQVSLTCLVKGFYPSDIAVEWESNGQPENNYKTTPPVLDSDGSFFLYSKLTVDKSRWQQGNVFSCSVLHEALHSHYTQKSLSLSPGKGGSDSWKEEVIKLCGRELVRAQIAICGKSTGGGEGGGEGGGEGGGQLYSALANKCCHVGCTKRSLARFC .
12.3
